Tested on: UACC-257 melanoma
Assay: NCI-60 one-dose screen, 48 h (100 = growth as untreated, 0 = no growth, -100 = all killed)
Settings: 10 µM unless noted
About 83,000 compounds went through this panel and 20% of them were active in at least one assay; those are over-represented in the sample as a whole.
Binary classification by growth, with 40% as an inclusive lower bound for Met; all other cases are Not met.

growth >= 40% for COc1cc2nc(Cl)nc(Nc3cccc(C4=Nc5c(N)nc(N)nc5NC(c5ccc(Cl)cc5)C4)c3)c2cc1OC (centres undefined) ?
Met

Can COc1ccc(CCOc2cc3c(cc2OC)CCN(C(=O)NCc2cocn2)C3c2ccc(C)cc2C)cc1 (centres undefined) be said to have growth at or above 40%?
Not met

Check if growth >= 40% (inclusive). Item: Cc1ccc(-c2cc3nc(C(Cl)Cl)nc(-c4ccco4)n3n2)cc1
Met

Does growth meet or surpass 40% for COc1ccc([C@@H]2[C@@H](O)C(=O)N2c2cc(OC)c(OC)c(OC)c2)cc1F ?
Met

Is growth at least 40%? Consider NC(N)=Nc1ccc(Oc2cccc(NC(N)=Nc3ccc(I)cc3F)c2)cc1
Met

API: above_or_equal(metric=growth, cutoff=40%) for item C#Cc1nc(C(C)=O)cs1
Met

Please indicate if the recorded growth for CC1(C)CC[C@]2(C(=O)N3CCOCC3)CC[C@]3(C)C(=CC[C@@H]4[C@@]5(C)C/C(=C/c6ccccn6)C(=O)C(C)(C)[C@@H]5CC[C@]43C)[C@@H]2C1 meets or exceeds 40%.
Met

Confirm if growth reported for the compound O=C(NNc1nc2cc(F)ccc2n2c(CN3CC4CNCC4C3)ccc12)c1cnccn1 (centres undefined) is 40% or above.
Not met

Determine whether this compound has growth no lower than 40%: CCC1=Cc2cc(OC)ccc2OC12C=Cc1cc(OC)ccc1O2 (centres undefined)
Met

Is reported growth greater than or equal to 40% here: COc1ccc2c(c1)c(CC(=O)[Se]CCC#N)c(C)n2C(=O)c1ccc(Cl)cc1
Not met

Hi, just wondering whether Cc1cc2ncc(-c3cc4ccccc4c(N4CCN(C)CC4)n3)nc2cc1C shows growth of 40% or higher.
Met

Check the entry CC(C)(C)CC(C)(C)n1nnnc1C(Nc1nccs1)c1cc2cccc3ccc4cccc1c4c32 (centres undefined) : does growth equal or exceed 40%?
Met

Identify whether the reported growth of the following compound is 40% or greater: CS(=O)(=O)Nc1cc(-c2ccc3ncc(C#N)c(Nc4cccc(Cl)c4F)c3c2)cnc1Cl
Not met

Threshold query (growth >= 40%) on O=C1CCCc2nc(Nc3ccc(S(=O)(=O)Nc4ccc([N+](=O)[O-])cc4)cc3)ncc21
Met

Would you say CCc1ccc(SC2c3ccc(N(CC)CC)cc3Oc3nc(N)c(C#N)c(N)c32)cc1 (centres undefined) shows growth at minimum 40%?
Not met

Threshold query (growth >= 40%) on O=S(=O)(Nc1ccc2c(c1)OCO2)c1ccc(-c2cnc(C3CC3)o2)cc1
Met

Does the reported growth for CC(C)(C)c1ccc(C(=O)Nc2sc3c(c2C(N)=O)CC/C(=N\O)C3)cc1 fall at or above the 40% mark?
Not met

Confirm if growth reported for the compound CN1CCN(Cc2ccc(NC(=O)c3cncc(C#Cc4cnc5ccc(N6CCN(C)CC6)nn45)c3)cc2C(F)(F)F)CC1 is 40% or above.
Met
